# melting point per record follows

Worked set:
NNC(=O)Nc1cc(F)cc(F)c1 = 176 to 178 °C
CS(=O)(=O)CC1(CBr)CC1 = 50 to 52 °C
OC(CN1CCNCC1)c1ccccc1 (centres undefined) = 67 to 69 °C
NC1(c2ccc(Cl)cc2)CCOCC1 = 50 to 52 °C
CC(C)n1ncc(C(=O)O)c1N = 109 to 111 °C

Input line: Which melting point value belongs to `CSc1ccc(C(=O)CCC(=O)O)cc1` ?
Output line: 152 to 154 °C

Input line: Now try `NC(COC1CCOCC1)=NO` .
Output line: 79 to 81 °C

Input line: Now try `CC(C)CCNC(N)=S` .
Output line: 93 to 95 °C

Input line: Now try `O=C(O)C1CCN(C(=O)N2CCOCC2)CC1` .
Output line: 131 to 133 °C

Input line: Now try `O=C(O)C=CC(=O)c1ccc(F)c(F)c1` .
Output line: 114 to 116 °C

Input line: Now try CCC(C)NC(=O)c1cccc(CN)c1 (centres undefined) .
Output line: 95 to 97 °C

Input line: Now try `NS(=O)(=O)c1ccc(CCNC(=O)CCl)cc1` .
Output line: 145 to 148 °C

Input line: Now try CC1(C(=O)O)CCCN1C(=O)c1ccccc1 (centres undefined) .
Output line: 205 to 207 °C

Input line: Now try COc1ccc(Br)cc1C(N)CO (centres undefined) .
Output line: 99 to 101 °C

---

Readout name: melting point

Worked set:
O=C(CSc1cccs1)Nc1ccc(C(=O)O)cc1 = 233 to 235 °C
Nc1ccnc(Oc2ccccc2Br)c1 = 108 to 110 °C

Consider the record given below.
Input line: Which melting point value belongs to CCC(Br)C(N)=O (configuration not stated) ?
Output line: 108 to 110 °C

---

Readout name: melting point

Worked set:
COc1ccc(-c2csc(CN)c2)cc1 = 124 to 126 °C
O=C(O)C1CC(c2ccc(Cl)cc2)C1 (stereo not drawn) = 119 to 121 °C
COc1ccccc1C(N)=NO = 105 to 107 °C
COc1cc(OC)cc(C(=O)Nc2ccc(O)c(C(=O)O)c2)c1 = 241 to 243 °C
Cc1sc2nc(CN3CCCC3)nc(Cl)c2c1C = 68 to 72 °C
O=C(O)c1cnn(-c2cccc(Cl)c2)c1 = 204 to 206 °C
Nc1oncc1-c1ccccc1 = 97 to 99 °C
CC1(C)NC(=O)N(Cc2ccc(C#N)cc2)C1=O = 167 to 169 °C
Nc1cc(Cl)ccc1NCc1ccccc1 = 77 to 81 °C
CC1CNc2cccnc2O1 (stereo not drawn) = 132 to 134 °C

Input line: Which melting point value belongs to `O=C(O)CNS(=O)(=O)c1ccc2c(c1)COC2` ?
Output line: 219 to 221 °C

Input line: Now try `Cc1nc(Cl)c2cnn(-c3ccc(F)cc3)c2n1` .
Output line: 114 to 116 °C

Input line: Now try `Nc1cc(S(=O)(=O)N2CCOCC2)ccc1N1CCOCC1` .
Output line: 210 to 212 °C

---

# melting point per record follows

Worked set:
N#CCc1ccc([N+](=O)[O-])cc1Br = 66 to 68 °C
COc1ccc(Oc2ccc(Cl)cc2N)cc1 = 47 to 49 °C

Input line: Which melting point value belongs to `O=C(CCl)c1ccc(CC(=O)N2CCOCC2)s1` ?
Output line: 136 to 138 °C

Input line: Now try `Cc1[nH]cnc1CC#N` .
Output line: 164 to 166 °C

Input line: Now try NC(=O)C(O)C1CC1 (stereo not given) .
Output line: 115 to 117 °C

Input line: Now try `COC(=O)C=Cc1ccc(C(F)(F)F)cc1` .
Output line: 74 to 76 °C

Input line: Now try `Cc1ccc(C(N)=S)c(C)c1` .
Output line: 59 to 63 °C

Input line: Now try `O=C(O)CCc1ncc(-c2ccc(F)cc2)o1` .
Output line: 144 to 146 °C

Input line: Now try `COc1c(C)cnc(Cn2ccc(N)n2)c1C` .
Output line: 59 to 61 °C

Input line: Now try `COC(=O)C(=O)CC(=O)c1ccccc1Br` .
Output line: 61 to 63 °C

Input line: Now try `NC(=O)c1c[nH]nn1` .
Output line: 256 to 258 °C

Input line: Now try `N#CC1(c2ccc3c(c2)OCO3)CC1` .
Output line: 73 to 75 °C

Input line: Now try `CCOc1ccccc1-n1nnnc1S` .
Output line: 53 to 55 °C

Input line: Now try COc1ccc2c(c1)NC(=O)C2O (stereo not given) .
Output line: 189 to 191 °C

Input line: Now try `COc1ccnc(CO)c1` .
Output line: 70 to 72 °C

---

# melting point per record follows

Worked set:
NC(=O)NCc1ccncc1 = 198 to 200 °C
CC(=O)Nc1ccc(OC2CCCCC2O)cc1 (centres undefined) = 139 to 141 °C
NNc1cc(Cl)ncn1 = 151 to 153 °C
O=C(O)c1ncoc1C1CCCO1 (centres undefined) = 125 to 127 °C
O=C(O)c1cc(Cl)c(Cl)[nH]1 = 164 to 166 °C
CC(C)(C)c1nn(-c2ccccc2)cc1C=O = 57 to 59 °C
O=C(O)c1cccc(NS(=O)(=O)c2cc(Cl)ccc2Cl)c1 = 217 to 219 °C
O=C(O)c1cc([N+](=O)[O-])ccc1SC1CCCC1 = 203 to 205 °C

Input line: Which melting point value belongs to `CCC(=O)Nc1ccc(C(=O)CCl)cc1` ?
Output line: 104 to 106 °C

Input line: Now try `Nc1cc(C2CCC2)no1` .
Output line: 77 to 79 °C

Input line: Now try CCC(C)c1ccc(-c2csc(N)n2)cc1 (centres undefined) .
Output line: 77 to 79 °C

Input line: Now try CC(Sc1ccccc1Cl)C(=O)O (centres undefined) .
Output line: 50 to 52 °C

Input line: Now try `COC(=O)c1cc(N)ccc1F` .
Output line: 84 to 86 °C

Input line: Now try `Nc1ccc(CC(=O)N2CCOCC2)cc1` .
Output line: 164 to 166 °C

Input line: Now try `Cn1cc(C(N)=O)c(C(F)F)n1` .
Output line: 214 to 216 °C

---

Readout name: melting point

Cc1noc(N)c1S(N)(=O)=O = 131 to 133 °C
C#CCNC(=O)Nc1ccccc1Cl = 173 to 175 °C
N#Cc1ccc2[nH]cc(C=O)c2c1 = 239 to 241 °C
O=S(=O)(Cl)c1cccc(-c2cccs2)c1 = 57 to 59 °C
Cc1nc(-c2ccc(Cl)cc2)sc1C(C)O (stereo not given) = 119 to 121 °C
Cc1ccc(-c2nnc(N)o2)cc1F = 264 to 266 °C

Input line: Which melting point value belongs to `Nc1cccc(N2CCCS2(=O)=O)c1` ?
Output line: 85 to 87 °C

---

# melting point per record follows

Worked set:
NC(=NO)C1CCCCCC1 = 87 to 89 °C
NCc1nnc2ccccn12 = 131 to 133 °C
COC(=O)c1cc(N)cc(Cl)c1 = 95 to 97 °C

Input line: Which melting point value belongs to `NCC1(O)CCS(=O)(=O)CC1` ?
Output line: 175 to 177 °C

Input line: Now try `Cc1ccc(S(=O)(=O)Nc2cccc(C(F)(F)F)c2)cc1N` .
Output line: 116 to 118 °C

---

Readout name: melting point

O=S1(=O)CCCN1c1cccc(Br)c1 = 74 to 76 °C
CC(C)(C)OC(=O)N1CC[C@H](O)C1 = 60 to 62 °C
Cc1c(N)cccc1S(=O)(=O)NC(C)(C)C = 185 to 187 °C
ClCc1nc(-c2cc(Br)cs2)no1 = 56 to 58 °C
CCOc1ccc(C(=O)O)cc1OC = 198 to 202 °C
CCOC(=O)c1sc2[nH]cnc(=O)c2c1C = 233 to 235 °C
CC(C)CC1NC(C(=O)O)CS1 (stereo not drawn) = 159 to 161 °C
NC(=O)c1cccc(O)c1 = 163 to 165 °C

Input line: Which melting point value belongs to `O=C(O)C1(C(=O)Nc2ccc(F)cc2)CC1` ?
Output line: 179 to 181 °C

Input line: Now try `Cn1ncc2c(=O)[nH]c(Cl)nc21` .
Output line: 268 to 270 °C

---

Readout name: melting point

NNC(=O)C(=O)Nc1ccccn1 = 179 to 181 °C
CCc1nnc(S)n1C = 138 to 140 °C
CCOC(=O)/C(C#N)=C/Nc1ccc(OC)cc1OC = 153 to 155 °C
Cc1cc(C(=O)O)nn1-c1ccc(Cl)c(Cl)c1 = 219 to 221 °C
NNc1cn[nH]c(=O)c1Cl = 171 to 173 °C

Input line: Which melting point value belongs to `COC(=O)N(C)c1ccc(O)cc1` ?
Output line: 99 to 101 °C

Input line: Now try `CC(C)(C)c1ccc(NC(N)=S)cc1` .
Output line: 153 to 155 °C

Input line: Now try `Nc1ccc(N2CCNCC2)cn1` .
Output line: 162 to 164 °C

Input line: Now try `O=[N+]([O-])c1ccc(OCCO)cc1C(F)(F)F` .
Output line: 62 to 64 °C

Input line: Now try `Cc1ccc(NS(=O)(=O)c2ccc(NN)c([N+](=O)[O-])c2)c(C)c1` .
Output line: 215 to 217 °C

Input line: Now try `O=C(O)CCCCc1ccc(O)c(O)c1` .
Output line: 93 to 95 °C

Input line: Now try `Cc1noc2ncc(N)cc12` .
Output line: 179 to 181 °C

Input line: Now try `O=C(Nc1cccnc1)OCC(F)(F)F` .
Output line: 140 to 142 °C

Input line: Now try `COc1ccc(CCCCC(=O)O)cc1` .
Output line: 112 to 114 °C

Input line: Now try `CC(C)(C)c1nnn[nH]1` .
Output line: 203 to 205 °C

Taken from a melting point compilation (Tetko et al.).
